- assay_name: Stability of binimetinib and encorafenib in rat plasma under different storage conditions
- Format: in vitro ADME
- particulars: HQC 2400 ng/mL, n 3, read-out: Autosampler Stability at 10 °C (24 h), Recovery (%)
For each entry below, report its recovery at 24 h, 2400 ng/mL value.
Please respond with the number in % and leave the unit unwritten.

**Q:** # return recorded recovery at 24 h, 2400 ng/mL for entry Cn1cnc2c(F)c(Nc3ccc(Br)cc3F)c(C(=O)NOCCO)cc21
**A:** 95.4

**Q:** Please report recovery at 24 h, 2400 ng/mL for the following compound: COC(=O)N[C@@H](C)CNc1nccc(-c2cn(C(C)C)nc2-c2cc(Cl)cc(NS(C)(=O)=O)c2F)n1
**A:** 92.4

---

- assay_name: Stability of binimetinib and encorafenib in rat plasma under different storage conditions
- Format: in vitro ADME
- particulars: HQC 2400 ng/mL, n 3, read-out: Long Term Stability at −80 °C (30 Days), Recovery (%)
readout_type: recovery at 30 days, 2400 ng/mL
Kindly write the number and append the unit.

**Q:** Item Cn1cnc2c(F)c(Nc3ccc(Br)cc3F)c(C(=O)NOCCO)cc21 : provide recovery at 30 days, 2400 ng/mL
**A:** 94.8%

**Q:** Note down recovery at 30 days, 2400 ng/mL recorded for COC(=O)N[C@@H](C)CNc1nccc(-c2cn(C(C)C)nc2-c2cc(Cl)cc(NS(C)(=O)=O)c2F)n1
**A:** 94.6%

---

- assay_name: Stability of binimetinib and encorafenib in rat plasma under different storage conditions
- Format: in vitro ADME
- particulars: LQC 1.5 ng/mL, n 3, read-out: Freeze and Thaw Stability at −80 °C (3 Cycles), Recovery (%)
readout_type: recovery at 1.5 ng/mL (%)
Number in %, nothing else.

**Q:** Return recovery at 1.5 ng/mL for the following compound: COC(=O)N[C@@H](C)CNc1nccc(-c2cn(C(C)C)nc2-c2cc(Cl)cc(NS(C)(=O)=O)c2F)n1
**A:** 99.5

**Q:** Tell me recovery at 1.5 ng/mL reported for Cn1cnc2c(F)c(Nc3ccc(Br)cc3F)c(C(=O)NOCCO)cc21
**A:** 104

---

- assay_name: Stability of binimetinib and encorafenib in rat plasma under different storage conditions
- Assay type: in vitro ADME
- particulars: LQC 1.5 ng/mL, n 3, read-out: Long Term Stability at −80 °C (30 Days), Recovery (%)
readout_type: recovery at 30 days, 1.5 ng/mL (%)
Response body: numeric value in %, unit text excluded.

**Q:** Give the reported value of recovery at 30 days, 1.5 ng/mL for this record: Cn1cnc2c(F)c(Nc3ccc(Br)cc3F)c(C(=O)NOCCO)cc21
**A:** 95.5

**Q:** Give recovery at 30 days, 1.5 ng/mL for the following molecule: COC(=O)N[C@@H](C)CNc1nccc(-c2cn(C(C)C)nc2-c2cc(Cl)cc(NS(C)(=O)=O)c2F)n1
**A:** 97.5

---

- assay_name: Stability of binimetinib and encorafenib in rat plasma under different storage conditions
- Type: in vitro ADME
- particulars: HQC 2400 ng/mL, n 3, read-out: Short Term Stability at Room Temperature (24 h), Recovery (%)
Consider the following compounds; for each one, report its recovery at 24 h, 2400 ng/mL.
Give a bare numeral; the unit % is implied.

**Q:** Give a short answer stating reported recovery at 24 h, 2400 ng/mL for Cn1cnc2c(F)c(Nc3ccc(Br)cc3F)c(C(=O)NOCCO)cc21 [Binimetinib, binimetinib] .
**A:** 93.4

**Q:** Please list recovery at 24 h, 2400 ng/mL recorded for the compound COC(=O)N[C@@H](C)CNc1nccc(-c2cn(C(C)C)nc2-c2cc(Cl)cc(NS(C)(=O)=O)c2F)n1 [Encorafenib, encorafenib]
**A:** 94.5

---

- assay_name: Stability of binimetinib and encorafenib in rat plasma under different storage conditions
- Assay type: in vitro ADME
- particulars: LQC 1.5 ng/mL, n 3, read-out: Short Term Stability at Room Temperature (24 h), Recovery (%)
- Description: An important process of bioanalytical method validation is stability assessment. […] The stability of ENF and BNB was assessed after exposing the QC samples at LQC, MQC, and HQC to different storage conditions (temperature and time). […] Long-term stability was assessed after storing QCs for 30 days at −80 °C. Freeze and thaw stability were evaluated after three freezing and thawing cycles and compared with freshly prepared QCs. […]
readout_type: recovery at 24 h, 1.5 ng/mL (%)
Quick note: give the figure in %, leave out the unit.

**Q:** Return recovery at 24 h, 1.5 ng/mL (reported value) for this compound: COC(=O)N[C@@H](C)CNc1nccc(-c2cn(C(C)C)nc2-c2cc(Cl)cc(NS(C)(=O)=O)c2F)n1
**A:** 95.2

**Q:** Look up and report measured recovery at 24 h, 1.5 ng/mL for this entry: Cn1cnc2c(F)c(Nc3ccc(Br)cc3F)c(C(=O)NOCCO)cc21
**A:** 96.2

---

- assay_name: Pharmacokinetic study in rats after oral administration of binimetinib and encorafenib
- Type: in vivo
- particulars: male, Wistar; rat plasma; oral 3.8 mg/kg binimetinib and 20 mg/kg encorafenib; fasting; mean ± SD; read-out: Cmax (maximum plasma concentration)
Exercise: state measured Cmax for each of the molecules provided.
Provide only the numeric value, understood in µg/mL.

**Q:** Output Cmax of Cn1cnc2c(F)c(Nc3ccc(Br)cc3F)c(C(=O)NOCCO)cc21
**A:** 3.43

**Q:** # return recorded Cmax for input COC(=O)N[C@@H](C)CNc1nccc(-c2cn(C(C)C)nc2-c2cc(Cl)cc(NS(C)(=O)=O)c2F)n1
**A:** 16.4

---

Task for the reader: assign each of the following molecules its reported AUC(0-inf).
- assay_name: Pharmacokinetic study in rats after oral administration of binimetinib and encorafenib
- Format: in vivo
- particulars: male, Wistar; rat plasma; oral 3.8 mg/kg binimetinib and 20 mg/kg encorafenib; fasting; mean ± SD; read-out: AUC0-∞ (area under the curve extrapolated to infinity)
The reply should contain only the number, in ng·h/mL.

**Q:** Fill in AUC(0-inf) for record COC(=O)N[C@@H](C)CNc1nccc(-c2cn(C(C)C)nc2-c2cc(Cl)cc(NS(C)(=O)=O)c2F)n1
**A:** 36500

**Q:** Indicate the recorded AUC(0-inf) value for this molecule: Cn1cnc2c(F)c(Nc3ccc(Br)cc3F)c(C(=O)NOCCO)cc21
**A:** 18200

---

- assay_name: Stability of binimetinib and encorafenib in rat plasma under different storage conditions
- Format: in vitro ADME
- particulars: MQC 1800 ng/mL, n 3, read-out: Autosampler Stability at 10 °C (24 h), Recovery (%)
readout_type: recovery at 24 h, 1800 ng/mL (%)
State just the number; it will be interpreted in %.

**Q:** Supply measured recovery at 24 h, 1800 ng/mL of Cn1cnc2c(F)c(Nc3ccc(Br)cc3F)c(C(=O)NOCCO)cc21 in your reply.
**A:** 104

**Q:** State its recovery at 24 h, 1800 ng/mL: COC(=O)N[C@@H](C)CNc1nccc(-c2cn(C(C)C)nc2-c2cc(Cl)cc(NS(C)(=O)=O)c2F)n1
**A:** 99.8

---

For each of the compounds below, state its AUC(0-t).
- assay_name: Pharmacokinetic study in rats after oral administration of binimetinib and encorafenib
- Format: in vivo
- particulars: male, Wistar; rat plasma; oral 3.8 mg/kg binimetinib and 20 mg/kg encorafenib; fasting; mean ± SD; read-out: AUC0-t (area under the curve up to the last sampling time)
Provide only the numeric value, understood in ng·h/mL.

**Q:** Quote AUC(0-t) reported for COC(=O)N[C@@H](C)CNc1nccc(-c2cn(C(C)C)nc2-c2cc(Cl)cc(NS(C)(=O)=O)c2F)n1 please.
**A:** 30300

**Q:** Indicate its recorded AUC(0-t); the compound in question is Cn1cnc2c(F)c(Nc3ccc(Br)cc3F)c(C(=O)NOCCO)cc21
**A:** 12400
